test: Experiment 4: subacute toxicity to fish; assay type: in vivo, 2-year-old carps; conditions: carp, water; 0.2 ppm; 3 weeks; read-out: Survival rate after 3 weeks
READOUT KIND: survival at 504 h (%)
Provide the reading as a plain figure in %.

Examples with their reported survival at 504 h follow.
CC1CCC(C)CN(C(=O)SCCCCCl)C1 (centres unmarked) [Compound 7]	100
CCSC(=O)N1CCCCCC1 [Compound 13, reference compound]	50
CC1CCC(C)CN(C(=O)SCCCCCCCl)C1 (centres unmarked) [Compound 8]	100
CC1CCCCN1C(=O)SCCCCCl (centres unmarked) [Compound 1]	100
CCN(CC)C(=O)SCCCCl [Compound 10, reference compound]	80

Check the records and state survival at 504 h for CC1CCCCN1C(=O)SCCCCl (centres unmarked) [Compound 12, reference compound]
70

Check the records and state survival at 504 h for CC1CCC(C)CN(C(=O)SCCCCl)C1 (centres unmarked) [Compound 6]
100

Check the records and state survival at 504 h for CC1CCCCN1C(=O)SCCCCCCl (centres unmarked) [Compound 2]
100

----------
assay: Experiment 3: acute toxicity to fish; type: in vivo, Black-carp fry; details: carp, water; 48 hrs; read-out: Median lethal concentration TLm (48hrs)
A collection of compounds and their measured LC50 at 48 h
Provide the reading as a plain figure in µg/mL.

CC1CCCCN1C(=O)SCCCCCl (stereo not drawn)	11
CC1CCC(C)CN(C(=O)SCCCCCl)C1 (stereo not drawn)	2.6
CC1CCC(C)CN(C(=O)SCCCCl)C1 (stereo not drawn)	4.4

Check the records and state LC50 at 48 h for CCSC(=O)N1CCCCCC1 [Compound 13, reference compound]
34

----------
test: Experiment 3: acute toxicity to fish; format: in vivo, Black-carp fry; settings: carp, water; 24 hrs; read-out: Median lethal concentration TLm (24hrs)
READOUT KIND: LC50 at 24 h
Remember to put the unit after the number in your answer.

Check the records and state LC50 at 24 h for CC1CCCCN1C(=O)SCCCCl (stereo not shown) [Compound 12, reference compound]
1 µg/mL

----------
test system: Mizugayatsuri (Cyperus serotinus); assay: Experiment 2: herbicidal effects against Mizugayatsuri (pot test, granules); format: in vivo; conditions: 150 g/10a., 25 days
A collection of compounds and their measured Herbicidal activity Mizugayatsuri (Cyperus serotinus)

Check the records and state Herbicidal activity Mizugayatsuri (Cyperus serotinus) for CC1CCCCN1C(=O)SCCCCl (stereo not shown) [Compound 12, reference compound]
4 (70 to 89%)

----------
assay: Experiment 3: acute toxicity to fish; type: in vivo, Black-carp fry; settings: carp, water; 96 hrs; read-out: Median lethal concentration TLm (96hrs)
READOUT KIND: LC50 at 96 h (µg/mL)
Provide the reading as a plain figure in µg/mL.

Examples with their reported LC50 at 96 h follow.
CC1CCC(C)CN(C(=O)SCCCCCl)C1 (stereo not shown)	2.6
CC1CCCCN1C(=O)SCCCCCl (stereo not shown)	10
CC1CCC(C)CN(C(=O)SCCCCl)C1 (stereo not shown)	3.7

Kindly review the next compound as well.
Check the records and state LC50 at 96 h for CCN(CC)C(=O)SCCCCl [Compound 10, reference compound]
18

----------
A collection of molecules and their measured Herbicidal activity Mizugayatsuri (Cyperus serotinus)
system: Mizugayatsuri (Cyperus serotinus); experiment: Experiment 2: herbicidal effects against Mizugayatsuri (pot test, granules); format: in vivo; conditions: 150 g/10a., 25 days

Examples with their reported Herbicidal activity Mizugayatsuri (Cyperus serotinus) follow.
CCSC(=O)N1CCCCCC1 [Compound 13, reference compound]	0 (less than 10%)
CC1CCC(C)CN(C(=O)SCCCCl)C1 (stereo not drawn) [Compound 6]	3 (50 to 69%)
CC1CCC(C)CN(C(=O)SCCCCCl)C1 (stereo not drawn) [Compound 7]	3 (50 to 69%)
CC1CCCCN1C(=O)SCCCCCl (stereo not drawn) [Compound 1]	4 (70 to 89%)
CC1CCCCN1C(=O)SCCCCCCCCCl (stereo not drawn) [Compound 4]	2 (30 to 49%)
CC1CCCCN1C(=O)SCCCCCCCl (stereo not drawn) [Compound 3]	4 (70 to 89%)

Check the records and state Herbicidal activity Mizugayatsuri (Cyperus serotinus) for CC1CCCCN1C(=O)SCCCCCCl (stereo not drawn) [Compound 2]
3 (50 to 69%)

Check the records and state Herbicidal activity Mizugayatsuri (Cyperus serotinus) for CCN(CC)C(=O)SCCCCl [Compound 10, reference compound]
4 (70 to 89%)

Check the records and state Herbicidal activity Mizugayatsuri (Cyperus serotinus) for CC1CCC(C)CN(C(=O)SCCCCCCCl)C1 (stereo not drawn) [Compound]
2 (30 to 49%)

Hey, just so you know, these numbers are from patent US4400199A.
